Values compiled from ChEMBL document CHEMBL1961873.

Target: Tyrosine-protein kinase ZAP-70 (Homo sapiens) (UniProt P43403)
Sequence (whole entry): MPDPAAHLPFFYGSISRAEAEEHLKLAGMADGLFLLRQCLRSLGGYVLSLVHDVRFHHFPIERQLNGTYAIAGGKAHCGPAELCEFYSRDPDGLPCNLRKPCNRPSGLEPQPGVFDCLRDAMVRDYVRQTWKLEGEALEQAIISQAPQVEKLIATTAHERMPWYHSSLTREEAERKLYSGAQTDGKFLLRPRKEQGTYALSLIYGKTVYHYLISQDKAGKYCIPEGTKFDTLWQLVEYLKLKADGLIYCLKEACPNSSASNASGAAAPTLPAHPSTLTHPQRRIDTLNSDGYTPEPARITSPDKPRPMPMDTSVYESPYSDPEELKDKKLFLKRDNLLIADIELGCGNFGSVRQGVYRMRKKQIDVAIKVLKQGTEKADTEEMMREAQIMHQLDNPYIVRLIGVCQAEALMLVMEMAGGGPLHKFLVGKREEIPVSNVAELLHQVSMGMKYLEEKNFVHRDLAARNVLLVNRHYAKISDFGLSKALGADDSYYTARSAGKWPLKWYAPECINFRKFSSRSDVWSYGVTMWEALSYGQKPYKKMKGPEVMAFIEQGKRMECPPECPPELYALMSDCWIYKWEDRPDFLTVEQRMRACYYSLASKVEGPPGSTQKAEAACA
Conditions: at 1 µM
Description: GSK_PKIS: ZAP70 mean inhibition at 1 uM [Nanosyn]
I'd be grateful if you could share measured inhibition for these entries.

Query block: Given the entry "COc1cc(N2CCN(C(C)C)CC2)ccc1Nc1nc(Nc2cccc(F)c2C(=O)O)c2cc[nH]c2n1" , report its measured inhibition.
Result block: 7.8%

Query block: Same for "Cn1c(-c2nonc2N)nc2cnccc21"
Result block: 1.74%

Query block: Same for "COc1c(C(N)=O)cc(-c2ccc(Cl)cc2)cc1-c1ccc(S(N)(=O)=O)cc1"
Result block: 4.12%

Query block: Same for "COC(=O)Nc1nc2cc(Oc3ccc(NC(=O)Nc4ccccc4)cc3)ccc2[nH]1"
Result block: 1.28%

Query block: Same for "COc1cccc(Nc2nccc(-c3cnn4ncccc34)n2)c1"
Result block: 11.7%

Query block: Same for "COc1cccc(-n2ncc3c(N/N=C/c4ccc(C(=O)NCCN(C)C)cc4)ncnc32)c1"
Result block: 4.14%

Query block: Same for "CN(C)CCNC(=O)Nc1ccc(N(C)c2ccnc(Nc3ccc(CS(C)(=O)=O)cc3)n2)cc1"
Result block: 1.48%
